assay: Single dose PK/TK, rhesus monkey; type: in vivo; details: rhesus monkey, plasma, intramuscular, 0.016 mg/kg; rhesus monkeys; read-out: Cmax at NOAEL for behavioral side effects
measurementKind: Cmax (nM)
Give the value in nM but do not write nM after it.

Query :: State the recorded Cmax for this entry: c1cnc2c(c1)C[C@@]1(CN3CCC1CC3)O2 [AZD0328]
Result :: 18

* * *

assay: Single dose PK/TK, rabbit; conditions: female, New Zealand White, in vivo, sc; rabbit 3F, DMB10, single subcutaneous 6.49 mg/kg (30 μmol/kg); read-out: T½ (converted)
measurementKind: half-life (h)
Numeric answer only, unit h assumed.

Query :: Could you tell me which half-life is on file for c1cnc2c(c1)C[C@@]1(CN3CCC1CC3)O2 ?
Result :: 4.56

* * *

test: Intestinal transit (charcoal meal, glass bead); settings: in vivo; rat, oral; read-out: NOAEL on intestinal motility
measurementKind: NOAEL
Mention the unit after the number when you answer.

Query :: Entry c1cnc2c(c1)C[C@@]1(CN3CCC1CC3)O2 [AZD0328] : reported NOAEL = ?
Result :: 5.6 mg/kg

* * *

experiment: Single oral dose pharmacokinetics in healthy human volunteers; type: in vivo; conditions: human, plasma; single oral dose 0.23 mg, median
measurementKind: Tmax (h)
Your answer is read as h, so omit the unit and give the number.

Query :: // Tmax lookup, key: c1cnc2c(c1)C[C@@]1(CN3CCC1CC3)O2
Result :: 1.5

* * *

assay: Single oral dose pharmacokinetics in healthy human volunteers; format: in vivo; details: human, plasma; single oral dose 1.35 mg, geometric mean
measurementKind: AUC(0-t) (µM·h)
A number alone suffices; assume µM·h.

Query :: AUC(0-t) lookup needed for c1cnc2c(c1)C[C@@]1(CN3CCC1CC3)O2 , thanks.
Result :: 0.3

* * *

experiment: Single oral dose pharmacokinetics in healthy human volunteers; format: in vivo; settings: human, plasma; single oral dose 0.23 mg, geometric mean
measurementKind: AUC (µM·h)
Form entry: value (µM·h) — number only.

Query :: Requested read-out: AUC. Entry: c1cnc2c(c1)C[C@@]1(CN3CCC1CC3)O2
Result :: 0.0652

* * *

test: Single dose PK/TK, minipig; format: in vivo; details: male, Gottingen, in vivo; minipig 3M, DMW12, iv 8.5 mg/kg (39.3 μmol/kg); read-out: T½ (converted)
measurementKind: half-life
Report the figure along with its unit, number first.

Query :: I have this compound here, c1cnc2c(c1)C[C@@]1(CN3CCC1CC3)O2 , and I need its recorded half-life.
Result :: 3.71 h

* * *

assay: Single oral dose pharmacokinetics in healthy human volunteers; assay type: in vivo; conditions: human, plasma; single oral dose 0.68 mg, geometric mean
measurementKind: AUC(0-t) (µM·h)
API: value field is a number in µM·h; no unit string.

Query :: Could you tell me which AUC(0-t) is on file for c1cnc2c(c1)C[C@@]1(CN3CCC1CC3)O2 ?
Result :: 0.133

* * *

experiment: Single oral dose pharmacokinetics in healthy human volunteers; assay type: in vivo; conditions: human, plasma; single oral dose 0.23 mg, geometric mean
measurementKind: half-life (h)
The answer is to be given in h; state only the numeric part.

Query :: # lookup: half-life of c1cnc2c(c1)C[C@@]1(CN3CCC1CC3)O2
Result :: 6.7

* * *

experiment: Single dose PK/TK, rhesus monkey; assay type: in vivo; conditions: both sexes, in vivo; rhesus monkey 2M+2F, 03.330/1, iv 1.15 mg/kg (5.32 μmol/kg); read-out: T½ (converted)
measurementKind: half-life
Reply with a number, then the unit it belongs to.

Query :: I have this molecule here, c1cnc2c(c1)C[C@@]1(CN3CCC1CC3)O2 , and I need its recorded half-life.
Result :: 1.96 h
